All figures here come from patent US6548553B2.

protocol-details: Trypan blue exclusion viability assay, normal fibroblasts
Type: cell-based
condition-description: mouse, NIH3T3 cells (normal fibroblasts); 250 nM and 500 nM, 48 hours; read-out: non-viable NIH3T3 cells
readout-name: cytotoxicity at 48 h

Sure, the documented cytotoxicity at 48 h for O=S(=O)(/C=C/c1ccc(F)cc1)Cc1ccc(Cl)cc1 [Example 11, E-4-fluorostyryl 4-chlorobenzyl Sulfone] is 2 to 3%

* * *

The molecules listed here are annotated with their viability at 48 h.
protocol-details: Trypan blue exclusion viability assay, normal fibroblasts
Format: cell-based
Design: dose or concentration left out as unconfirmed
condition-description: mouse, NIH3T3 cells (normal fibroblasts); 48 hours incubation; read-out: viable NIH3T3 cells

Value of viability at 48 h reported for the molecule "O=S(=O)(/C=C/c1ccc(Cl)cc1)Cc1ccc(Cl)cc1" is > 80%

For this molecule ( "O=S(=O)(/C=C/c1ccc(F)cc1)Cc1ccc(Br)cc1" ), measured viability at 48 h is > 80%

The molecule identified as "O=S(=O)(/C=C/c1ccc(F)cc1F)Cc1ccc(F)cc1" registered its viability at 48 h at > 80%

So, "O=S(=O)(/C=C/c1ccc(Br)cc1)Cc1ccc(F)cc1" ? Its viability at 48 h was > 80%

// sample "O=S(=O)(/C=C/c1ccc(F)cc1)Cc1ccc(Cl)cc1" , its viability at 48 h was > 80%
